- experimental_system: BTK (Homo sapiens (Human), UniProt Q06187)
- Sequence (Q06187 whole entry): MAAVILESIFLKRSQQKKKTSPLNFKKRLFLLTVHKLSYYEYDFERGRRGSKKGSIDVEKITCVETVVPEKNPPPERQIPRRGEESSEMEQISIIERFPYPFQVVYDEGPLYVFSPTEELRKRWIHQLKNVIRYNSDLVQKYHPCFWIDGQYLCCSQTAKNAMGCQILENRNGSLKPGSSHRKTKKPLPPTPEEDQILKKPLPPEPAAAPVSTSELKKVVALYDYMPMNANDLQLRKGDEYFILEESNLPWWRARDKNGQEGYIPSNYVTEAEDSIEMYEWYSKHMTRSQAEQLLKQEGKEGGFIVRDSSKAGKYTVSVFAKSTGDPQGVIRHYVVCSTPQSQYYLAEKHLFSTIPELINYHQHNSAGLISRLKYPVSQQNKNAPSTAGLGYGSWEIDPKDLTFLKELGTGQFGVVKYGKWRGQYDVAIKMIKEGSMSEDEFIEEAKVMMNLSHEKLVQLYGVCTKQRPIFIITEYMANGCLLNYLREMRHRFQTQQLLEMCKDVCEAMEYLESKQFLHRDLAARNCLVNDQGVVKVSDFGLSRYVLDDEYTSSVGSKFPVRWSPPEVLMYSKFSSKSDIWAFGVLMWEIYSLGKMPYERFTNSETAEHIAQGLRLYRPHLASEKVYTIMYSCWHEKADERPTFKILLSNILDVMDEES
- procedure_summary: BTK Ramos cellular assay (phosphorylation of BTK substrate PLCγ2)
- Type: cell-based
- assay_conditions: Ramos cells, compound 1 hour, anti-human IgM stimulation, read-out: BTK Inhibition (BTK Ramos Cellular Inhibition Data)
Reported IC50 by item:

compound: C=CC(=O)Nc1cccc(Oc2nc(Nc3cccc(OC)c3)ncc2C(=O)NC2CC2)c1 [Compound I-177]
IC50: 100 to 1000 nM
--
compound: C=CC(=O)N1CCC[C@@H](Oc2nc(Nc3ccc(OC)nc3)ncc2F)C1 [Compound I-180]
IC50: 100 to 1000 nM
--
compound: C=CC(=O)Nc1cccc(Oc2nc(Nc3cccc(OC)c3)ncc2C(N)=O)c1 [Compound I-178]
IC50: 10 to 100 nM

---

- System: B cell lymphoma cell lines
- procedure_summary: B cell lymphoma proliferation assay
- Type: cell-based
- assay_conditions: DHL4 B cell lymphoma cell line, read-out: EC50 (μM) DHL4
parameter_measured: EC50

compound: C=CC(=O)Nc1cccc(Nc2nc(Nc3cc(OC)c(OC)c(OC)c3)ncc2F)c1 [Compound I-133]
experimental_system: B cell lymphoma cell lines
parameter_measured: EC50
value_reported: < 0.1 µM
//
compound: C=CC(=O)N1Cc2ccc(Nc3nc(Nc4ccc(OC)nc4)ncc3F)cc2C1 [Compound I-165]
experimental_system: B cell lymphoma cell lines
parameter_measured: EC50
value_reported: 1 to 10 µM
//
compound: Cc1cccc(Nc2nc(Nc3cccc(NC(=O)/C=C/CN(C)C)c3)ncc2F)c1 [Compound I-4]
experimental_system: B cell lymphoma cell lines
parameter_measured: EC50
value_reported: 0.1 to 1 µM
//
compound: C=C(C#N)C(O)c1ccc(Nc2nc(Nc3ccccc3)ncc2F)cc1 (centres unmarked) [Compound I-161]
experimental_system: B cell lymphoma cell lines
parameter_measured: EC50
value_reported: 1 to 10 µM
//
compound: C=CC(=O)Nc1cccc(Nc2nc(Nc3ccc(OCCOC)cc3)ncc2F)c1 [Compound I-182]
experimental_system: B cell lymphoma cell lines
parameter_measured: EC50
value_reported: 1 to 10 µM
//
compound: C=CC(=O)N1CCOc2ccc(Nc3nc(Nc4ccc(OC)nc4)ncc3F)cc21 [Compound I-194]
experimental_system: B cell lymphoma cell lines
parameter_measured: EC50
value_reported: 1 to 10 µM
//
compound: C=CC(=O)Nc1cccc(Nc2nc(Nc3cccc(S(N)(=O)=O)c3)ncc2F)c1 [Compound I-160]
experimental_system: B cell lymphoma cell lines
parameter_measured: EC50
value_reported: 1 to 10 µM
//
compound: C=CC(=O)N1CCC[C@@H](Nc2nc(Nc3cccc(OCCN4CCOCC4)c3)ncc2F)C1 [Compound I-135]
experimental_system: B cell lymphoma cell lines
parameter_measured: EC50
value_reported: > 10 µM
//
compound: C=CC(=O)N1CCOc2ccc(Nc3nc(Nc4ccc(OCCOC)cc4)ncc3C(C)=O)cc21 [Compound I-150]
experimental_system: B cell lymphoma cell lines
parameter_measured: EC50
value_reported: 1 to 10 µM
//
compound: C=CC(=O)Nc1cccc(Nc2nc(Nc3cccc(OC(F)(F)F)c3)ncc2F)c1 [Compound I-244]
experimental_system: B cell lymphoma cell lines
parameter_measured: EC50
value_reported: 1 to 10 µM
//
compound: C=CC(=O)Nc1cccc(Oc2nc(Nc3ccc(OC)nc3)ncc2C)c1 [Compound I-186]
experimental_system: B cell lymphoma cell lines
parameter_measured: EC50
value_reported: 1 to 10 µM
//
compound: C=CC(=O)Nc1cccc(Nc2nc(Nc3ccc(OC)c(OC)c3)ncc2F)c1 [Compound I-134]
experimental_system: B cell lymphoma cell lines
parameter_measured: EC50
value_reported: < 0.1 µM
//
compound: C=CC(=O)Nc1cccc(Nc2nc(Nc3cccc(OCCCS(C)(=O)=O)c3)ncc2F)c1 [Compound I-138]
experimental_system: B cell lymphoma cell lines
parameter_measured: EC50
value_reported: 1 to 10 µM
//
compound: C=CC(=O)Nc1cccc(Nc2nc(Nc3ccc4c(cnn4C(=O)OC(C)(C)C)c3)ncc2F)c1 [Compound I-151]
experimental_system: B cell lymphoma cell lines
parameter_measured: EC50
value_reported: 1 to 10 µM
//
compound: C=CC(=O)Nc1cccc(Nc2nc(Nc3ccc(OC)nc3)ncc2C(C)=O)c1 [Compound I-189]
experimental_system: B cell lymphoma cell lines
parameter_measured: EC50
value_reported: 1 to 10 µM
//
compound: C=CC(=O)Nc1cccc(Nc2nc(Nc3ccc4[nH]ncc4c3)ncc2F)c1 [Compound I-156]
experimental_system: B cell lymphoma cell lines
parameter_measured: EC50
value_reported: 1 to 10 µM
//
compound: C=CC(=O)Nc1cccc(Nc2nc(Nc3ccc4c(c3)N(C(=O)C(F)(F)F)CCO4)ncc2F)c1 [Compound I-143]
experimental_system: B cell lymphoma cell lines
parameter_measured: EC50
value_reported: 1 to 10 µM

---

pIC50: −log10 of the molar value.
The reader will find pIC50 measurements below, all made with JAK3 (Homo sapiens (Human)).
Sequence (P52333 whole entry): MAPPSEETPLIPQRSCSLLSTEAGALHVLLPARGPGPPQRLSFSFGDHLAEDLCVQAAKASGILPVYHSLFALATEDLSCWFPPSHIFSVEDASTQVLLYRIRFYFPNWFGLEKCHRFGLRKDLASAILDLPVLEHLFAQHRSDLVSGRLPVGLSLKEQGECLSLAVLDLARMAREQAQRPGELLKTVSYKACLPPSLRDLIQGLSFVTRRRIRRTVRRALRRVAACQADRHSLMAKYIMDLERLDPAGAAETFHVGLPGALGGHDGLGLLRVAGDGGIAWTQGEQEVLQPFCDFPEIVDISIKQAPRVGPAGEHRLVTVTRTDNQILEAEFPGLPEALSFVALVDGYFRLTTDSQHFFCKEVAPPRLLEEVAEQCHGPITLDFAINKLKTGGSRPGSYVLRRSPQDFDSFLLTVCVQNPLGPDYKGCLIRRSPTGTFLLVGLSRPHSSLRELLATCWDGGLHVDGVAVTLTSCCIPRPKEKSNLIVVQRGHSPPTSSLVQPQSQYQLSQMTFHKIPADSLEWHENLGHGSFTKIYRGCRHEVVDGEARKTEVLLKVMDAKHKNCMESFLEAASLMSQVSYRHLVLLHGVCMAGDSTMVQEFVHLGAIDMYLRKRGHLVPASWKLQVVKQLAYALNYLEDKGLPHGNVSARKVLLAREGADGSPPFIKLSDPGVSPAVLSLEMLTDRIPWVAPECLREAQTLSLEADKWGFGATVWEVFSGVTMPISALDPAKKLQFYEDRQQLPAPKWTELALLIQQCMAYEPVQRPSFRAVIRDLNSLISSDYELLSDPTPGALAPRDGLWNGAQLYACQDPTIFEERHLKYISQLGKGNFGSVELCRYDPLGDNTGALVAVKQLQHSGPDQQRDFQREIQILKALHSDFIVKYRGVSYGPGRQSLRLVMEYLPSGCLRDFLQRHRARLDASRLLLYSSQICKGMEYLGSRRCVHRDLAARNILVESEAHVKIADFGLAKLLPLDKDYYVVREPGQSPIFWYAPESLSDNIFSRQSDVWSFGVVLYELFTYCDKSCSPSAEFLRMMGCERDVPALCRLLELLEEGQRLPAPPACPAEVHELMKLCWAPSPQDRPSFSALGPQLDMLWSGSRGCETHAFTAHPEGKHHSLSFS

compound: C=CC(=O)Nc1cccc(Nc2nc(Nc3ccc(OCCOC)c(F)c3)ncc2F)c1
pIC50: > 8.00

compound: C=CC(=O)Nc1cccc(Nc2nc(Nc3ccccc3)ncc2C(F)(F)F)c1
pIC50: > 8.00

compound: C=CC(=O)Nc1cccc(Nc2nc(NCc3ccc(OC)cc3)ncc2F)c1
pIC50: 6.00 to 7.00

compound: C=CC(=O)N1CCCC(Nc2nc(Nc3ccccc3)ncc2C)C1 (centres unmarked)
pIC50: 7.00 to 8.00

compound: C=CC(=O)Nc1cccc(Nc2nc(Nc3cccc(S(N)(=O)=O)c3)ncc2C)c1
pIC50: > 8.00

compound: C=CC(=O)Nc1cccc(Nc2ncc(C)c(Nc3cccc(C)c3)n2)c1
pIC50: > 8.00

compound: C/C=C/C(=O)OCc1cccc(Nc2nc(Nc3ccccc3)ncc2C)c1
pIC50: 6.00 to 7.00

compound: Cc1cnc(Nc2ccccc2)nc1Nc1cccc(NC(=O)/C=C/CN(C)C)c1
pIC50: 7.00 to 8.00

compound: C=CC(=O)Nc1cccc(Nc2nc(NC3CCCN(C(C)=O)C3)ncc2F)c1 (centres unmarked)
pIC50: 5.00 to 6.00

compound: C=CC(=O)Nc1cccc(Nc2ncc(F)c(Nc3cccc(C)c3)n2)c1
pIC50: > 8.00

compound: C=CC(=O)Nc1cccc(Nc2nc(Nc3ccc(OCCOC)cc3)ncc2F)c1
pIC50: > 8.00

compound: C=CC(=O)Nc1ccc(C)c(Nc2ncc(C)c(Nc3cccc(C)c3)n2)c1
pIC50: > 8.00

compound: C=CC(=O)Nc1cccc(Nc2nc(Nc3ccc(OC)nc3)ncc2F)c1
pIC50: > 8.00

compound: C=CC(=O)Nc1cccc(Nc2nccc(Nc3cccc(C)c3)n2)c1
pIC50: > 8.00

compound: CCC(=O)Nc1cccc(Nc2nc(Nc3ccccc3)ncc2C)c1
pIC50: 5.00 to 6.00

compound: COCCOc1ccc(Nc2ncc(F)c(Nc3cccc(C(=O)C=C(C)C)c3)n2)cc1F
pIC50: < 5.00

compound: C=CC(=O)Nc1cccc(Nc2nc(Nc3cccc(OC)c3)ncc2C(F)(F)F)c1
pIC50: > 8.00

---

- experimental_system: BTK (Rattus norvegicus)
- Sequence (Q5S255 1-660): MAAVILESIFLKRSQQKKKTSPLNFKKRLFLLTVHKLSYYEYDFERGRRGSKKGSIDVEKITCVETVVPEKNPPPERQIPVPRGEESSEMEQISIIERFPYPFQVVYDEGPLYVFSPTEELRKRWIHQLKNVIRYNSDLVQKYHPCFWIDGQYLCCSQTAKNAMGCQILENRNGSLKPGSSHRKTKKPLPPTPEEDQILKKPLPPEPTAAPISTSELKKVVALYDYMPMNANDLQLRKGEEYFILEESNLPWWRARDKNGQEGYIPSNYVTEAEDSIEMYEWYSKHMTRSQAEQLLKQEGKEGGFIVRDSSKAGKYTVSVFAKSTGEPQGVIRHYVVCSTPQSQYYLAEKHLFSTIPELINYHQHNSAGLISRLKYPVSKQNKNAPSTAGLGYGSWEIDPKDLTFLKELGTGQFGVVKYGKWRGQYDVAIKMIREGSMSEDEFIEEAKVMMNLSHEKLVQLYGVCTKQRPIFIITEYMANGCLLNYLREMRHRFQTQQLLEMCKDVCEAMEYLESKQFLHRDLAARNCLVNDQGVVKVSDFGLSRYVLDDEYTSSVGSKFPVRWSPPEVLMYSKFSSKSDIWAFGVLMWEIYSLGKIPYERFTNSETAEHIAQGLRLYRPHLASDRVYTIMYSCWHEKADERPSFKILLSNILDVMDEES
- procedure_summary: BTK occupancy from in vivo samples by ELISA
- assay_conditions: po, rats dosed orally 30 mg/kg, spleen B cells harvested 2 hours after treatment, read-out: % BTK Occupancy 2 h

structure_smiles_string: C=CC(=O)Nc1cccc(Nc2nc(Nc3ccccc3)ncc2C)c1
receptor occupancy at 30 mg/kg, %: 98

structure_smiles_string: C=CC(=O)N1CCC[C@@H](Oc2nc(Nc3cccc(OC)c3)ncc2F)C1
receptor occupancy at 30 mg/kg, %: 18

structure_smiles_string: C=CC(=O)Nc1cccc(Nc2nc(Nc3ccc(OCCOC)c(F)c3)ncc2F)c1
receptor occupancy at 30 mg/kg, %: 87

structure_smiles_string: Cc1cccc(Nc2nc(Nc3cccc(NC(=O)/C=C/CN(C)C)c3)ncc2F)c1
receptor occupancy at 30 mg/kg, %: 87

structure_smiles_string: C=CC(=O)Nc1cccc(Nc2nc(Nc3ccc(OCCOC)cc3)ncc2F)c1
receptor occupancy at 30 mg/kg, %: 99

---

- experimental_system: BTK (Rattus norvegicus)
- procedure_summary: BTK occupancy from in vivo samples by ELISA
- assay_conditions: po, rats dosed orally 30 mg/kg, spleen B cells harvested 24 hours after treatment, read-out: % BTK Occupancy 24 h
Decide by receptor occupancy at 30 mg/kg: equal to or exceeding 60% means true (1), less means false (0).

molecule: Cc1cccc(Nc2nc(Nc3cccc(NC(=O)/C=C/CN(C)C)c3)ncc2F)c1 [Compound I-4]
answer_label: true (1)
//
molecule: C=CC(=O)Nc1cccc(Nc2nc(Nc3ccc(OCCOC)cc3)ncc2F)c1 [Compound I-182]
answer_label: true (1)
//
molecule: C=CC(=O)N1CCC[C@@H](Oc2nc(Nc3cccc(OC)c3)ncc2F)C1 [Compound I-190]
answer_label: false (0)
//
molecule: C=CC(=O)Nc1cccc(Nc2nc(Nc3ccccc3)ncc2C)c1 [Compound I-7]
answer_label: true (1)
